- SYSTEM: epithelial Na+ channel (mENaC; α-, β- and γ-mouse ENaC subunits) (Mus musculus, UniProt Q61180+Q9WU38+Q9WU39)
- Construct: α-, β- and γ-mouse ENaC subunits genetically linked to NH2-terminal eCFP, expressed in CHO cells; with β- and γ-ENaC subunits (Scnn1b, Scnn1g)
- Sequence (Q61180 whole entry): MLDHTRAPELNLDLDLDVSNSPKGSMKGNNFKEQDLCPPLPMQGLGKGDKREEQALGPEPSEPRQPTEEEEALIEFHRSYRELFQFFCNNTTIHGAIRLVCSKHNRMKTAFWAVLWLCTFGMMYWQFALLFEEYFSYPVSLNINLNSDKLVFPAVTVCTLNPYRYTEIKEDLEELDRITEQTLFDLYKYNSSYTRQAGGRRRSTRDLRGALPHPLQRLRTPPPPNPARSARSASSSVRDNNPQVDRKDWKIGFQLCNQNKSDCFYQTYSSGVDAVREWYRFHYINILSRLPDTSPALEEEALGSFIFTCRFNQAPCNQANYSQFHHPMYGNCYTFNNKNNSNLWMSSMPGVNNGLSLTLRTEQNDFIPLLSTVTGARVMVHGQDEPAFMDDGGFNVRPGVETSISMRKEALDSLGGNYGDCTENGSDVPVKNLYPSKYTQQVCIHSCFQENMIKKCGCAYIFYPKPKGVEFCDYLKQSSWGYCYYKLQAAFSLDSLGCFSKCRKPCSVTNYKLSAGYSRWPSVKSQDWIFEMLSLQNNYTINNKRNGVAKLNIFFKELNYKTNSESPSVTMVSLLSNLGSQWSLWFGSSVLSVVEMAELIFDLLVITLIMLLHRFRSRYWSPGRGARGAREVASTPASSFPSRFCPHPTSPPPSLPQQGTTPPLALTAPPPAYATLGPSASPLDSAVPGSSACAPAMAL
- Sequence (Q9WU38 whole entry): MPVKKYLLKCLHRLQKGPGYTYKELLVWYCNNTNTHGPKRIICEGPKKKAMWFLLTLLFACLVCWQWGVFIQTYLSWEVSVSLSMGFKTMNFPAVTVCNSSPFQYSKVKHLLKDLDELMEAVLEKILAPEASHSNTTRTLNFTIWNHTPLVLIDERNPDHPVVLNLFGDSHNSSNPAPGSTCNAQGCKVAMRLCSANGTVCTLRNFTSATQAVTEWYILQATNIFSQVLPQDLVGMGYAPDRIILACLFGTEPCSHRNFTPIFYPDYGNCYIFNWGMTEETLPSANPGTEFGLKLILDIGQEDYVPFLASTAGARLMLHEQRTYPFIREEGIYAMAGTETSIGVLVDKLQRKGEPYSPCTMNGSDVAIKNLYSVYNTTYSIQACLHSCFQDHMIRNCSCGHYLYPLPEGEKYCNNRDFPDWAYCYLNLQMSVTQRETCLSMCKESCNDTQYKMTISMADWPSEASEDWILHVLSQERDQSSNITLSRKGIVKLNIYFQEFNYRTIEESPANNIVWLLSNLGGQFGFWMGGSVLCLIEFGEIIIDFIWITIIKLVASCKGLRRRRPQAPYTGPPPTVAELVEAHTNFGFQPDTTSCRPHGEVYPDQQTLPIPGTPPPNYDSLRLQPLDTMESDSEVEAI
- Sequence (Q9WU39 whole entry): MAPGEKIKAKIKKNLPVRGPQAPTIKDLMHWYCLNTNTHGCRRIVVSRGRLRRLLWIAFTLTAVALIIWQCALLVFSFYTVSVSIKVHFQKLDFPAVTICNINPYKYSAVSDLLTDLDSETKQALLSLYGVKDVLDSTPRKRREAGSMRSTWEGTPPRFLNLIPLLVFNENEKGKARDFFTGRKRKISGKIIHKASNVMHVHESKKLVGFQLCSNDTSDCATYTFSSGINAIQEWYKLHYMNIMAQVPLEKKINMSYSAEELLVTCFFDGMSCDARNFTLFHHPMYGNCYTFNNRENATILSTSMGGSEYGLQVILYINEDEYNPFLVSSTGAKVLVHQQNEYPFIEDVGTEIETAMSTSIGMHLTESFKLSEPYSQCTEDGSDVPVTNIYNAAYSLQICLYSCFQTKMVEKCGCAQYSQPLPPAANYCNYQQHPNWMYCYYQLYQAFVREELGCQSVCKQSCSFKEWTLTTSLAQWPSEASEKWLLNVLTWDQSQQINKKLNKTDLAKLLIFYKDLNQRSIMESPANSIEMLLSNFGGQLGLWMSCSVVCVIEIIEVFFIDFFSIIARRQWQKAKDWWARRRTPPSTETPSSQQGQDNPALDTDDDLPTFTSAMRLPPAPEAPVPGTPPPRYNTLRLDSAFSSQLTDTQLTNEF
- PROTOCOL_NOTES: whole-cell patch clamp dose-response and competition with amiloride in CHO cells (partial inhibitor, Emax […]); direct action inferred, secondary effects not excluded
READOUT_NAME: IC50 (nM)
Write the answer as a number in nM, unit excluded.

Ask: So what's the measured IC50 for this one? [NH2][Pt]([NH2])([Cl])[Cl] [CDDP, cis-diamminedichloroplatinum (II)]
Result: 1000
